system: M. tuberculosis log-phase growth, CFU enumeration; assay: M. tuberculosis log-phase growth inhibition, dose response, dry powder samples (AID 651850)

smi	IC90
Brc1ccc(-c2nnc(SCc3ccccn3)o2)cc1	62 µM
Clc1ccc(-c2nnc(SCc3cn(Cc4ccccc4)nn3)o2)cc1	125 µM
c1ccc(-n2cc(CSc3nnc(C4CCCC4)o3)nn2)cc1	62 µM
c1ccc(-c2nnc(SCCN3CCN(c4ccccc4)CC3)o2)cc1	62 µM
CC(C)c1nnc(SCc2ccccc2)o1	125 µM
Fc1ccc(-c2nnc(SCc3cn(Cc4ccccc4)nn3)o2)cc1	62 µM

* * *

tested on: M. tuberculosis log-phase growth, CFU enumeration; assay: M. tuberculosis log-phase growth inhibition, dose response, dry powder samples (AID 651850)

molecule	IC90
Fc1cccc(-c2nnc(SCc3ccccn3)o2)c1	31 µM
c1ccc(-c2nnc(SCc3cscn3)o2)cc1	62 µM
O=S(Cc1cn(Cc2ccccc2)nn1)c1nnc(-c2ccc(Cl)cc2)o1 (stereo unspecified)	62 µM
c1ccc(CSc2nnc(-c3ccccc3)o2)cc1	62 µM
c1ccc(-n2cc(CSc3nnc(C4CCC4)o3)nn2)cc1	62 µM
Brc1cccc(-c2nnc(SCc3ccccn3)o2)c1	62 µM

* * *

tested on: M. tuberculosis log-phase growth, CFU enumeration; assay: M. tuberculosis log-phase growth inhibition, dose response, dry powder samples (AID 651850)

molecule	IC90
c1ccc(CSc2nnc(C3CCCC3)o2)cc1	250 µM
COc1cccc(-c2nnc(SCc3ccccn3)o2)c1	62 µM
COc1ccc(CSc2nnc(-c3ccc(Cl)cc3)o2)nc1	16 µM
O=S(Cc1ccccc1)c1nnc(-c2ccccc2)o1 (configuration not stated)	< 31 µM
c1ccc(-c2nnc(SCc3ccccn3)o2)cc1	< 31 µM
Fc1ccc(-c2nnc(SCc3ccccn3)o2)cc1	16 µM
c1ccc(Cn2cc(CSc3nnc(C4CCCC4)o3)nn2)cc1	62 µM
